Consider the following molecules; for each one, report its pIC50.
TESTED_SYSTEM: Broad substrate specificity ATP-binding cassette transporter ABCG2 (Homo sapiens)
Sequence (Q9UNQ0 whole entry): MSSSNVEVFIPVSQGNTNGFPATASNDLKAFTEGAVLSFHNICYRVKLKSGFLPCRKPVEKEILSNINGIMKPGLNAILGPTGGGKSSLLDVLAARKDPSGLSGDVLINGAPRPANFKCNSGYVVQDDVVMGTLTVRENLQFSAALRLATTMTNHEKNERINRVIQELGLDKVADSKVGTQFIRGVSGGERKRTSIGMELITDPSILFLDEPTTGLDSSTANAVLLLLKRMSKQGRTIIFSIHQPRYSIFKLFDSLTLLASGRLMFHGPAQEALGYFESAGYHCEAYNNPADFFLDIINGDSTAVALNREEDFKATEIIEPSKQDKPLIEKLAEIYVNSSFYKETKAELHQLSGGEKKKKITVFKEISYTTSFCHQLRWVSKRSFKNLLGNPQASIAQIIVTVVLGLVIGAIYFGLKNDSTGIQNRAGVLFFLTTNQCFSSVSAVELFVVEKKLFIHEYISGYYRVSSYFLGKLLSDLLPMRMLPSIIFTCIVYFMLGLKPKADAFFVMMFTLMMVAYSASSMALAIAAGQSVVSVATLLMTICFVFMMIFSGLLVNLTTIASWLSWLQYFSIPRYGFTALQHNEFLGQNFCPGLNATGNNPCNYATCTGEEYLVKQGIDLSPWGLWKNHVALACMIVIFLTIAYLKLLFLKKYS
ASSAY_EXPLANATION: Inhibition of GFP-tagged human BCRP expressed in MDCK2 cells pre-incubated for 30 mins followed by Hoechst 33342 addition and further incubated for 120 mins by Hoechst 33342 accumulation assay
By convention, pIC50 is the negative base-10 log of a molar concentration.

Value wanted: pIC50 (Broad substrate specificity ATP-binding cassette transporter ABCG2 (Homo sapiens)) of entry `COc1ccc(-n2nnc(-c3ccccc3NC(=O)c3ccc(OC)c(OC)c3)n2)cc1`
6.93

`CCCc1ccc(-n2nnc(-c3ccccc3NC(=O)c3ccc([N+](=O)[O-])cc3)n2)cc1` ?
6.74

`COc1cccc(-n2nnc(-c3ccccc3NC(=O)c3ccc([N+](=O)[O-])cc3)n2)c1` ?
7.10

`CCCc1ccc(-n2nnc(-c3ccccc3NC(=O)c3ccc(OC)cc3)n2)cc1` ?
7.19

`CCCc1ccc(C(=O)Nc2ccccc2-c2nnn(-c3ccc(OC)cc3)n2)cc1` ?
7.10

`COc1ccccc1-n1nnc(-c2ccccc2NC(=O)c2ccc(C(F)(F)F)cc2)n1` ?
6.35

`O=C(Nc1ccccc1C(=O)Nc1ccc(CCN2CCc3ccccc3C2)cc1)c1cnc2ccccc2c1` ?
6.14

`COc1ccc(C(=O)Nc2ccccc2-c2nnn(-c3ccccc3OC)n2)cc1` ?
6.74

`COc1ccc(C(=O)Nc2ccccc2-c2nnn(-c3ccc(C(F)(F)F)cc3)n2)cc1` ?
7.14

The origin of these recorded values is ChEMBL document CHEMBL3425464.
